Taken from paper PMC12102759.

Assign screen value to each entry below.
B1: MXI1 peptide 6-21 (Max-interacting protein 1), 16-mer library wild type / SIN3A PAH2 (SIN3A PAH domain, residues 295-383) (parent)
chain 1: MINVQRLLEAAEFLER
chain 2: SLQNNQPVEFNHAINYVNKIKNRFQGQPDIYKAFLEILHTYQKEQRNAKEAGGNYTPALTEQEVYAQVARLFKNQEDLLSEFGQFLPDA

Variants of: B1
Assay: proteomic peptide phage display deep mutational scan (ProP-PD DMS): M13 P8 16-mer library selected against immobilised GST-tagged bait for four days (rounds), NGS of the eluted pools per day and pseudo-replica
Conditions: with SIN3A PAH2 (SIN3A PAH domain, residues 295-383); bait immobilised on MaxiSorp plates (10 µg), library pre-cleared on GST, 2 h binding at 4 °C, five washes; one round per day, days 1-4; value from days 2 and 3; keep out of graded; scale: average fractional NGS count over selection days 2 and 3

Look over these answered cases.
Sequence Variant: chain 1 A10M
screen value: 1.91e-05
--
Sequence Variant: chain 1 L8N
screen value: 7.15e-05
--
Sequence Variant: chain 1 L7M
screen value: 0
--
Sequence Variant: chain 1 N3Q
screen value: 5.31e-05

I would be grateful if you could provide screen value for each of the following entries.
1. chain 1 L14A
2. chain 1 L8F
3. chain 1 L14T
4. chain 1 R6M

[A]
1: 0; 2: 7.63e-05; 3: 5.17e-05; 4: 6.6e-05
